Source: ChEMBL document CHEMBL3085632

- PROTOCOL_TEXT: Selectivity ratio of IC50 for mouse NIH/3T3 cells to IC50 for mouse L1210 cells
- Type: ADME, cell-based
- TEST_SETTINGS: NIH/3T3 cells versus L1210 cells, read-out: Ratio IC50
PROPERTY_NAME: selectivity ratio
Form field (numeric): enter value without unit.

Prompt line: Fill in the blank: the reported selectivity ratio of "CCCCCCN1C(=O)CN/C1=N\c1ccc2cc3ccc(/N=C4\NCC(=O)N4CCCCCC)cc3nc2c1.Cl" is ____.
Response line: 4

----------
- PROTOCOL_TEXT: Selectivity ratio of IC50 for mouse NIH/3T3 cells to IC50 for human HL60 cells
- Type: ADME, cell-based, HL-60
- TEST_SETTINGS: NIH/3T3 cells versus HL60 cells, read-out: Ratio IC50
PROPERTY_NAME: selectivity ratio
Respond numerically, and do not add a unit to the figure.

Prompt line: May I ask what selectivity ratio has been recorded for "CCCCCCN1C(=O)CN/C1=N\c1ccc2cc3ccc(/N=C4\NCC(=O)N4CCCCCC)cc3nc2c1.Cl" ?
Response line: 4
